Experiment Notes: MM1S myeloma cell viability, profiling panel, resazurin fluorescence, basal, 24 h, PK04 Diversity Set (AID 1174);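 further: MM1S multiple myeloma cell line; test concentration not given here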
Test Parameters: higher = more signal, called active from +8 up or from −8 down
Class field: derived from z-score; ranges class A = under -0.2, class B = from -0.2 up to 0.9, class C = 0.9 and over

{"columns": ["Compound", "Cat"],
 "data": [
  ["C=CCc1cccc([C@H]2N[C@H](C(=O)O)CC[C@@H]2C)c1", "class C"],
  ["C[C@H]1COC(=O)[C@@H]2CCCN2C(=O)[C@@H](C)COC(=O)[C@@H]2CCCN2C1=O", "class C"],
  ["C[C@]1(C(=O)NCCN2CCOCC2)c2ccccc2C(=O)N(Cc2ccccc2)[C@H]1c1ccc(CO)cc1", "class B"],
  ["CC(=O)NCCCC[C@@H]1NC(=O)[C@@H]2C[C@H](C(=O)NCCCCCNC(=O)CS)[C@H](c3ccc(O)cc3)N2C1=O", "class C"],
  ["C=CC[C@]1(C(=O)O)N=C(c2ccc(OCCCO)cc2)O[C@H]1c1ccccc1N=[N+]=[N-]", "class B"],
  ["Cc1ccc(S[C@]2(C(=O)NCCN3CCOCC3)CC(=O)N(C3Cc4ccccc4C3)[C@@H]2c2ccc(CO)cc2I)cc1", "class A"],
  ["COCCOC(=O)N1C(=O)[C@@]2(c3cc(C#CC4=CCCCC4)ccc31)[C@H](C(=O)NC[C@H](O)c1ccccc1)[C@H]1C(=O)O[C@H](c3ccccc3)[C@H](c3ccccc3)N1[C@@H]2c1ccc(OCCO)cc1", "class A"],
  ["CC(C)(C)OC(=O)CC[C@]1(C(=O)NCCN2CCOCC2)N=C(c2ccc(OCCCO)cc2)O[C@H]1c1ccccc1CN=[N+]=[N-]", "class C"],
  ["O=C(NCc1ccccc1)[C@@]1(CCS(=O)(=O)c2ccccc2)COC(c2ccc(OCCCO)cc2)=N1", "class B"],
  ["Cc1ccc(N2C(=O)c3ccccc3[C@@H](C(=O)NCc3ccccc3)[C@@H]2c2ccc(CO)cc2)nc1", "class C"],
  ["CC(C)=C1C(=O)C(c2ccccc2)=C2CN3C(=O)N(CCc4ccccc4)C(=O)[C@]3(Cc3ccccc3)[C@H]21", "class A"],
  ["C=CC(=O)O[C@@H](Cc1ccccc1)[C@H]1C2C=CCCC=C2CN1Cc1cccc(Cl)c1 (stereo not given in full)", "class B"],
  ["CO[C@@H]1COC(=O)[C@H](C)NC(=O)CC=C[C@@H](C)[C@H](OC)COC(=O)[C@H](C)NC(=O)CC=C[C@H]1C", "class B"],
  ["O=C1O[C@H](c2ccccc2)[C@H](c2ccccc2)N2[C@H]1[C@@H](C(=O)Nc1nc3ccccc3s1)[C@]1(C(=O)Nc3ccc(C#CC4(O)CCCCCC4)cc31)[C@H]2c1ccc(O)cc1", "class A"],
  ["O=C1OCCC/C=C\\[C@H]2OC34C=CCN(CCN5CCOCC5)C(=O)[C@H]3N(CCCCCO)C(=O)[C@@H]4C12 (stereo not given in full)", "class B"]
]}

---

Experiment Notes: E. coli acrAB mutant growth effects, primary screen, E. coli filamentation inducers, strain DRC39, OD650, 48 h (AID 1179);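 further: screen aims at cell division blockers that make cells filament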
Test Parameters: E. coli DRC39 delta-acrAB growth, higher = more signal, called active from +8 up or from −8 down

{"columns": ["Compound", "z-score"],
 "data": [
  ["CC(c1ccccc1)C(O)C1C=CC2C(=O)N(C)C(=O)C2N1N(c1ccccc1)c1ccccc1 (centres undefined)", -0.0284],
  ["COc1cc2c(cc1OC)CN(C(=O)[C@@H]1[C@H]3C(=O)O[C@H](c4ccccc4)[C@H](c4ccccc4)N3[C@H](c3ccccc3OCCO)[C@@]13C(=O)Nc1ccccc13)CC2", 0.952],
  ["Cc1ccc(N2C(=O)c3ccccc3[C@](C)(C(=O)O)[C@@H]2c2ccc(CO)cc2)nc1", 0.396],
  ["COC(=O)[C@@]1(Cc2ccccc2N=[N+]=[N-])N=C(c2ccc(OCCCO)cc2)O[C@H]1c1ccccc1CN=[N+]=[N-]", 0.887]
]}

All figures here come from PubChem BioAssay.
